Target: IC-GPCR2 (Homo sapiens, UniProt Q8TDV5, S309L)
Construct: expressed in transfected cells
Assay: Stimulation of cAMP in CHO cells stably expressing IC-GPCR2 (HTRF cAMP assay)
Type: cell-based
Conditions: 0.5 h, 30 minutes, IC-GPCR2 stably expressing CHO cells, read-out: Activity at 10 uM (% change in FRET signal from DMSO control)
Procedure: This assay was developed using a stable cell line expressing IC-GPCR-2, generated as follows. […] To measure cAMP activity in response to IC-GPCR2 agonist, the clones were plated in 96 well plates at 17500 cells per well. On the day after plating, cells were incubated with the IC-CPCR2 agonist at […] for 30 minutes in Ham's F12 Media (Gibco) with 0.04% DMSO. cAMP was measured using the cAMP dynamic kit from Cis Bio (Bedford, Mass.) according to the manufacturer's instructions. […]
Measured activation at 10 µM accompanies every entry in the list below.
Answer in %, number only, no unit symbol.

INSERT INTO results (smiles_record, endpoint_label, test_value) VALUES
  ('CC(C)(C)OC(=O)N1CCC(c2nc(COc3ccc(-n4cnnn4)cc3F)co2)CC1', 'activation at 10 µM', 76),
  ('Fc1cc(-n2cnnn2)ccc1OCc1csc(C2CCN(c3ncc(C(F)(F)F)cc3Cl)CC2)n1', 'activation at 10 µM', 29);

Noted for COC(=O)N1CCC(c2nc(COc3ccc(S(C)(=O)=O)cc3)cs2)CC1 : its activation at 10 µM reads 58

Noted for CCc1cnc(N2CCC(c3nc(COc4ccc(-n5cnnn5)cc4F)co3)CC2)nc1 : its activation at 10 µM reads 75

Noted for CCc1cnc(N2CCC(c3nc(COc4ccc(SC(F)(F)F)cc4)cs3)CC2)nc1 : its activation at 10 µM reads 56

Noted for CC(C)(C)OC(=O)N1CCC(c2nc(COc3ccc(OCc4ccccc4)cc3)cs2)CC1 : its activation at 10 µM reads 66

Noted for CCc1cnc(N2CCC(c3nc(COc4ccc(NS(C)(=O)=O)cc4)cs3)CC2)nc1 : its activation at 10 µM reads 65

Noted for CC(C)(C)OC(=O)N1CCC(F)(c2nc(COc3ccc(S(C)(=O)=O)cc3)cs2)CC1 : its activation at 10 µM reads 62

====

target: IC-GPCR2 (Homo sapiens, UniProt Q8TDV5, S309L); construct: expressed in transfected cells; test: Stimulation of cAMP in CHO cells stably expressing IC-GPCR2 (HTRF cAMP assay); assay type: cell-based; settings: 0.5 h, 30 minutes, IC-GPCR2 stably expressing CHO cells, read-out: Activity at 10 uM (% change in FRET signal from DMSO control)
Measured activation at 10 µM accompanies every entry in the list below.
Answer in %, number only, no unit symbol.

INSERT INTO measurements (compound, assayed_system, test_value) VALUES
  ('CCc1cnc(N2CCC(c3nc(COc4ccc(-n5cnnn5)cc4)co3)CC2)nc1', 'IC-GPCR2 (Homo sapiens, UniProt Q8TDV5, S309L)', 85),
  ('CCOC(=O)c1ccc(OCc2csc(C3CCN(C(=O)OC(C)(C)C)CC3)n2)cc1', 'IC-GPCR2 (Homo sapiens, UniProt Q8TDV5, S309L)', 43),
  ('CCc1cnc(N2CCC(c3nc(COc4ccc(S(C)(=O)=O)c(C)c4)cs3)CC2)nc1', 'IC-GPCR2 (Homo sapiens, UniProt Q8TDV5, S309L)', 84),
  ('CC(C)(C)OC(=O)N1CCCC(c2nc(COc3ccc(-n4cnnn4)cc3)cs2)C1 (centres unmarked)', 'IC-GPCR2 (Homo sapiens, UniProt Q8TDV5, S309L)', 76),
  ('CCCCCCOC(=O)N1CCC(c2nc(COc3ccc(-n4cnnn4)cc3)cs2)CC1', 'IC-GPCR2 (Homo sapiens, UniProt Q8TDV5, S309L)', 64),
  ('CC(C)COC(=O)N1CCC(c2nc(COc3ccc(S(C)(=O)=O)cc3)cs2)CC1', 'IC-GPCR2 (Homo sapiens, UniProt Q8TDV5, S309L)', 58),
  ('Clc1ccc(N2CCC(c3nc(COc4ccc(-n5cnnn5)cc4)cs3)CC2)nn1', 'IC-GPCR2 (Homo sapiens, UniProt Q8TDV5, S309L)', 80);

Consider the record given below.
Noted for CCN(CC)C(=O)N1CCC(c2nc(COc3ccc(-n4cnnn4)cc3)cs2)CC1 : its activation at 10 µM reads 84

====

target: IC-GPCR2 (Homo sapiens, UniProt Q8TDV5, S309L); construct: expressed in transfected cells; test: Stimulation of cAMP in CHO cells stably expressing IC-GPCR2 (HTRF cAMP assay); assay type: cell-based; details: 0.5 h, 30 minutes, IC-GPCR2 stably expressing CHO cells, read-out: Activity at 10 uM (% change in FRET signal from DMSO control)
So basically: activation at 10 µM at 70% or higher? That is Yes. Lower than 70%? That is No.

As a guide, the following entries are already answered.
INSERT INTO assay_data (compound, label_class) VALUES
  ('CCOC(=O)CC(=O)N1CCC(c2nc(COc3ccc(-n4cnnn4)cc3)cs2)CC1 [Example 43]', 'No'),
  ('CCOC(=O)c1cnc(N2CCC(c3nc(COc4ccc(-n5cnnn5)cc4)cs3)CC2)s1 [Example 180]', 'No');

Data request: Decide: activation at 10 µM of CCc1cnc(N2CCC(c3nc(COc4ccc5sc(=O)oc5c4)cs3)CC2)nc1 [Example 15] >= 70%?
Data returned: No

Data request: Decide: activation at 10 µM of COc1cnc(N2CCC(c3nc(COc4ccc(-n5cnnn5)cc4)cs3)CC2)nc1 [Example 68] >= 70%?
Data returned: No

Data request: Decide: activation at 10 µM of CCc1cnc(N2CCC(c3nc(COc4ccc(-n5cccc5)cc4)cs3)CC2)nc1 [Example 160] >= 70%?
Data returned: Yes

Data request: Decide: activation at 10 µM of CCc1cnc(N2CCC(c3nc(COc4ccc(SC)c(C)c4)cs3)CC2)nc1 [Example 13] >= 70%?
Data returned: Yes

Data request: Decide: activation at 10 µM of CC(C)c1noc(N2CCC(c3nc(COc4ccc(-n5cnnn5)cc4)cs3)CC2)n1 [Example 95] >= 70%?
Data returned: No

Data request: Decide: activation at 10 µM of CCc1cnc(N2CCC(c3nc(COc4c(F)cc(S(C)(=O)=O)cc4F)cs3)CC2)nc1 [Example 189] >= 70%?
Data returned: Yes

Data request: Decide: activation at 10 µM of O=Cc1ccc(N2CCC(c3nc(COc4ccc(-n5cnnn5)cc4)cs3)CC2)nc1 [Example 72] >= 70%?
Data returned: Yes

Data request: Decide: activation at 10 µM of FC(F)(F)c1noc(N2CCC(c3nc(COc4ccc(-n5cnnn5)cc4)cs3)CC2)n1 [Example 98] >= 70%?
Data returned: Yes

Data request: Decide: activation at 10 µM of FC(F)(F)c1ccc(N2CCC(c3nc(COc4ccc(-n5cnnn5)cc4)cs3)CC2)nc1 [Example 71] >= 70%?
Data returned: Yes

Data request: Decide: activation at 10 µM of CC(C)(C)OC(=O)N1CCC(c2nc(COc3ccc(N4CCOCC4)cc3)cs2)CC1 [Example 133] >= 70%?
Data returned: No

Data request: Decide: activation at 10 µM of CCCCc1cnc(N2CCC(c3nc(COc4ccc(-n5cnnn5)cc4)cs3)CC2)nc1 [Example 190] >= 70%?
Data returned: Yes

Data request: Decide: activation at 10 µM of CCc1cnc(N2CCC(c3nc(COc4ccc(NC=O)cc4)cs3)CC2)nc1 [Example 116] >= 70%?
Data returned: Yes

Data request: Decide: activation at 10 µM of Cc1ccc(N2CCC(c3nc(COc4ccc(-n5cnnn5)cc4)cs3)CC2)nc1 [Example 69] >= 70%?
Data returned: Yes

====

Measured activation at 10 µM accompanies every entry in the list below.
Target: IC-GPCR2 (Homo sapiens, UniProt Q8TDV5, S309L)
Construct: expressed in transfected cells
Sequence (Q8TDV5 1-335 S309L): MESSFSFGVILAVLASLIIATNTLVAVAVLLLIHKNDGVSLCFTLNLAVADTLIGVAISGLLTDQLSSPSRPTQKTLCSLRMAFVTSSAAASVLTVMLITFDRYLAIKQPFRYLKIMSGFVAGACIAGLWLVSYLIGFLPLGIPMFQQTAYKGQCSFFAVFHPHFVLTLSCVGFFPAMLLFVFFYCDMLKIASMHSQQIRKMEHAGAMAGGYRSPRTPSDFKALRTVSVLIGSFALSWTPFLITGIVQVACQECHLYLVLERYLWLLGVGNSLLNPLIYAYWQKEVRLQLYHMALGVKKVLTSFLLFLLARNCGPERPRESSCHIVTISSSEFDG
Assay: Stimulation of cAMP in CHO cells stably expressing IC-GPCR2 (HTRF cAMP assay)
Type: cell-based
Conditions: 0.5 h, 30 minutes, IC-GPCR2 stably expressing CHO cells, read-out: Activity at 10 uM (% change in FRET signal from DMSO control)
Remember to put the unit after the number in your answer.

# example entries with known answers
INSERT INTO measurements (smiles_record, test_value) VALUES
  ('Fc1cc(-n2cnnn2)ccc1OCc1csc(C2CCN(c3ncc(Cl)cn3)CC2)n1', '68%'),
  ('CC(C)(C)CC(=O)N1CCC(c2nc(COc3ccc(-n4cnnn4)cc3)cs2)CC1', '75%'),
  ('Cc1cnc(N2CCC(c3nc(COc4ccc(-n5cnnn5)nc4)cs3)CC2)nc1', '78%'),
  ('CCCCCCCOC(=O)N1CCC(c2nc(COc3ccc(-n4cnnn4)cc3)cs2)CC1', '73%'),
  ('Cc1cc(-n2cnnn2)ccc1OCc1csc(C2CCN(C(=O)OC(C)(C)C)CC2)n1', '64%');

Noted for CC(C)(C)OC(=O)N1CCC(c2nc(COc3ccc(-n4cnnn4)cc3)cs2)CC1 : its activation at 10 µM reads 64%

Noted for CCCCOC(=O)N1CCC(c2nc(COc3ccc(-n4cnnn4)cc3)cs2)CC1 : its activation at 10 µM reads 77%
